experimentDescription: Cynomolgus monkey tolerability, coagulation (Example 34)
Type: in vivo
measurementParameters: cynomolgus monkeys, 35 mg/kg subcutaneously, day 44
measureName: FIB (mg/dL)

• 958499 (ATTAGAGTATGTGGCA; 3-10-3 cEt gapmer, further chemistry not given here) [compound 958499] = 275
• 1198872 (TGTATGTCAGAAGAGT; chemically modified gapmer, further chemistry not given here) [compound 1198872] = 206
• 1198728 (TATTAGAGTATGTGGC; modified gapmer, further chemistry not given here) [compound 1198728] = 242

====

This section presents substances with their documented YAP1 (% UT) values.
Tested on: Yap1 mRNA
experimentDescription: Antisense inhibition of human Yap1 in SNU-449 cells by modified oligonucleotides, single dose (Example 5, RTS36584)
Type: cell-based
measurementParameters: Table 52; Yap1 mRNA, modified oligonucleotides targeting SEQ ID NO: 1 and 2
Strand notation (5' to 3'): a small letter for the sugar, then the base; units joined by * are phosphorothioate-linked, units joined directly phosphodiester-linked; [ ] holds rarer units or linkages, { } end groups; capitals alone tell only the bases. k = constrained ethyl (cEt); [5mC] = 5-methylcytosine; d = 2'-deoxy (DNA); m = 2'-O-methyl
measureName: YAP1 (% UT)

• 1200788 (kG*kA*kA*dA*dT*mU*dG*dT*d[5mC]*dT*d[5mC]*dA*dT*kG*k[5mC]*k[5mC]; antisense) [Compound 1200788] = 19 % UT
• 1200810 (kA*kA*k[5mC]*dA*d[5mC]*mU*dG*dA*dG*dG*dT*dA*dT*kA*kA*k[5mC]; antisense) [Compound 1200810] = 94 % UT
• 1200815 (k[5mC]*kA*k[5mC]*dT*dT*mU*dT*dA*d[5mC]*dA*dT*dT*dA*kG*kG*kA; antisense) [Compound 1200815] = 55 % UT
